- System: SNB-19
- Assay text: NCI tumour cell line growth inhibition, 48 h
Activity calls are given as the source filed them. Rule as the data show it: active = GI50 up to about 1.1 µM and inactive = higher.
Mark one answer only. Choices: active, inactive

Worked set:
compound="C1=C(c2ccccc2)SC(N2CCCCC2)S1 (stereo not given)" class_assignment=inactive
compound=C/C(=N\Nc1nc2ccccc2[nH]1)c1ccc2ccccc2n1 class_assignment=inactive

Lookup: Hi, do you know how CC(=O)OC1CC[C@@]2(C)C(=CC[C@@H]3[C@@H]2CC[C@]2(C)C(OC(C)=O)[C@H](n4ccnc4)C[C@@H]32)C1 (stereo not given in full) came out in this test?
Found: inactive

Lookup: Hi, do you know how CCOC(=O)C(=O)Nc1c(CC)cccc1C(C)C came out in this test?
Found: inactive

Lookup: Hi, do you know how N#Cc1c(N)c(C(=O)O)nn(-c2cccc(C(F)(F)F)c2)c1=O came out in this test?
Found: inactive

Lookup: Hi, do you know how CCN(CC)C(=O)CCn1ccc(=O)[nH]c1=O came out in this test?
Found: inactive

* * *

- System: Hs-578T
- Assay text: NCI tumour cell line growth inhibition, 48 h
Calls of active or inactive are those of the source. Rule as the data show it: active = GI50 up to about 1.1 µM and inactive = higher.
Measurement kind: GI50

Example entries and their recorded answers appear below.
compound=COC(=O)c1ccc2cc(O)c(O)cc2c1 observed="22.8 µM (inactive)"
compound="CC(C)=CCc1c2c(c(O)c3c(=O)c4c(oc13)-c1ccc(O)cc1OC4C=C(C)C)C=CC(C)(C)O2 (centres undefined)" observed="2.37 µM (inactive)"

Would you be so kind as to report GI50 for each listed record?
1. CC[C@@]1(O)C(=O)OCc2c1cc1n(c2=O)Cc2c-1nc1ccccc1c2/C=N\NC(=O)C(N)CC(C)C (some centres undefined)
2. COC(=O)[C@]1(C)CCC[C@@]2(C)C1CC[C@]13C=C(C(C)C)[C@H](CC21)CC3(Cl)C#N (some centres undefined)

Found:
1: 11.3 µM (inactive); 2: > 100 µM (inactive)

Would you be so kind as to report GI50 for each listed record?
1. NC(=S)NC/C=C/Cl
2. c1ccc(/N=C2/SC(c3ccccc3)(c3ccccc3)c3ccccc32)cc1
3. N=C(N)NCC1CCCCCCN1 (centres undefined)
4. O=C(O)CC1(CC(=O)O)Nc2ccccc2SC1=O

Found:
["> 100 µM (inactive)", "> 100 µM (inactive)", "> 100 µM (inactive)", "> 100 µM (inactive)"]

In plain terms, CC(C)[Si]1(C(C)C)OCC2OC3(CO)C(Oc4nc(=O)ccn43)C2O[Si](C(C)C)(C(C)C)O1 (centres undefined) has a documented GI50 of 22.4 µM (inactive)

* * *

- Test system: SK-MEL-2
- Assay text: NCI tumour cell line growth inhibition, 48 h
Active and inactive are the calls of the source. Rule as the data show it: active = GI50 up to about 1.1 µM and inactive = higher.
Mark one answer only. Choices: active, inactive

Worked set:
compound=O=C(/C=C/c1ccc(Cl)cc1)Oc1ccc(C=C2CCC/C(=C\c3ccc(OC(=O)/C=C/c4ccc(Cl)cc4)cc3)C2=O)cc1 study_system=SK-MEL-2 class_assignment=inactive
compound=O=C1C=C(C2=C(C3=CC(=O)c4ccccc4C3=O)C(=O)c3ccccc3C2=O)C(=O)c2ccccc21 study_system=SK-MEL-2 class_assignment=inactive
compound=Cc1ccc(-n2c(O)c(C#N)c3[nH]nc(N)c3c2=O)cc1 study_system=SK-MEL-2 class_assignment=inactive
compound="Cc1cn(C2OC(CO)C(O)C2F)c(=O)[nH]c1=O (stereo unspecified)" study_system=SK-MEL-2 class_assignment=inactive
compound=CCN(CC)C(=O)CCn1ccc(=O)[nH]c1=O study_system=SK-MEL-2 class_assignment=inactive

Lookup: Hi, do you know how COc1ccc(CCc2nccn2C)cc1OC came out in this test?
Found: inactive

* * *

- System: K562
- Assay text: NCI tumour cell line growth inhibition, 48 h
The source made the active and inactive calls. Rule as the data show it: active = GI50 up to about 1.1 µM and inactive = higher.
For each record, write down the corresponding GI50.

compound=Clc1cc(Cl)ncn1 observed="> 100 µM (inactive)"
compound=O=C(c1cscc1CCc1ccccc1)c1cscc1CCc1ccccc1 observed="> 100 µM (inactive)"
compound="COc1ccc2[nH]c3c(c2c1)[C@H]1CCC(C(C)(C)C)C[C@H]1[C@H]1C(=O)N(c2ccccc2)C(=O)[C@@H]31 (stereo not given in full)" observed="20.6 µM (inactive)"
compound=COc1ccc(-c2cc(O)c3cc(Cl)ccc3n2)cc1 observed="> 100 µM (inactive)"

Per the reported K562 data, Cc1ccc(C(=N)Nc2ccccc2)cc1 has GI50 of > 100 µM (inactive)

* * *

For each record, write down the corresponding GI50.
- Test system: M19-MEL
- Assay text: NCI tumour cell line growth inhibition, 48 h
Calls of active or inactive are those of the source. No stated cut-off is given here; in the data, active = GI50 up to about 1.1 µM and inactive = higher.

compound=O=C1c2ccccc2C(=O)c2nc3c(O)cccc3cc21 study_system=M19-MEL observed="2.12 µM (inactive)"
compound="CN1c2ccccc2N(C)C23N(C)c4ccccc4N(C)C12N(C)c1ccccc1N3C (centres undefined)" study_system=M19-MEL observed="> 100 µM (inactive)"

Would you be so kind as to report GI50 for each listed record?
1. Cc1ccccc1/C=C/c1csnn1
2. O=C(CCc1nnc2s/c(=C\c3ccccc3Cl)c(=O)n12)Nc1cc(Cl)ccc1Cl
3. Cc1ccc(C2C(Cl)C(=O)N2NC(=O)c2ccc(N)cc2)cc1 (centres undefined)
4. CN1N=C(N)c2cn(C3OC(COP(=O)(O)O)C(O)C3O)c3ncnc1c23 (centres undefined)
5. O=C1C2C3C=CC(C2C(=O)N1CO)C1C2C(=O)N(CO)C(=O)C2C31 (centres undefined)
6. CCOC(=O)c1csc(CCCCCCc2nc(C(=O)OCC)cs2)n1
7. COc1ccc(/C=C/C(=O)c2sc(-c3cccnc3)nc2C)cc1

Found:
1. > 80.5 µM (inactive)
2. > 100 µM (inactive)
3. 19.8 µM (inactive)
4. 390 µM (inactive)
5. > 68.5 µM (inactive)
6. 21.9 µM (inactive)
7. 67.9 µM (inactive)

* * *

- System: UACC-257
- Assay text: NCI tumour cell line growth inhibition, 48 h
Calls of active or inactive are those of the source. No stated cut-off is given here; in the data, active = GI50 up to about 1.1 µM and inactive = higher.
For each record, write down the corresponding GI50.

compound=Cc1ccc(C(=O)N/N=C(\N=N\c2ccccc2)c2ccc(N(CCC#N)CCC#N)cc2C)cc1 observed="82.4 µM (inactive)"
compound=COc1ccc(-n2c3c(c4cc(O)ccc42)C(=O)c2ccccc2C3=O)cc1 observed="> 100 µM (inactive)"
compound="Nc1ncn([C@H]2C[C@H](O)[C@@H](CO)O2)c(=O)n1 [DECITABINE]" observed="34.9 µM (inactive)"
compound=CCOC(=O)Nn1cnnc1C observed="> 100 µM (inactive)"

Would you be so kind as to report GI50 for each listed record?
1. Cc1ccc(C2C(Cl)C(=O)N2NC(=O)c2ccc(N)cc2)cc1 (stereo unspecified)
2. COc1ccc2[nH]c3c(c2c1)[C@H]1CCC(C(C)(C)C)C[C@H]1[C@H]1C(=O)N(c2ccccc2)C(=O)[C@@H]31 (stereo partly specified)
3. Cc1cc(C)c2c(=O)cc(-c3ccccc3)[nH]c2c1
4. O=C(c1cc2ccccc2[nH]1)C(O)(c1cc2ccccc2[nH]1)c1cc2ccccc2[nH]1
5. Cc1cc(NS(=O)(=O)c2ccc(Nc3c4ccccc4nc4ccc(C(=O)Nc5ccc(S(N)(=O)=O)cc5)cc34)cc2)no1
6. COC(=O)C(=O)C(C(=O)C(=O)Nc1ccc(Cl)c(Cl)c1)c1nc2ccc(C(=O)c3ccccc3)cc2nc1O (stereo unspecified)
7. O=C1OC(c2ccccc2)=N/C1=C/NC(Cc1c[nH]c2ccccc12)C(=O)O (stereo unspecified)
8. Clc1ccc(Cl)c(SCCCN2CCNCC2)c1

Found:
24.3 µM (inactive)
24.2 µM (inactive)
21.7 µM (inactive)
> 246 µM (inactive)
> 100 µM (inactive)
> 100 µM (inactive)
> 100 µM (inactive)
11.7 µM (inactive)

Would you be so kind as to report GI50 for each listed record?
1. O=C1c2ccccc2C(=O)c2c1ccc(C1C(=O)c3ccccc3C1=O)c2-c1c(C2C(=O)c3ccccc3C2=O)ccc2c1C(=O)c1ccccc1C2=O
2. O=C(O)c1nc2ccc(Cl)cc2[nH]c1=O
3. NS(=O)(=O)c1nnc(NS(=O)(=O)c2cccc3cccnc23)s1

Found:
["> 100 µM (inactive)", "> 100 µM (inactive)", "> 100 µM (inactive)"]

Would you be so kind as to report GI50 for each listed record?
1. O=C(O)C1c2ccccc2C(C(=O)O)c2ccccc21 (stereo unspecified)
2. CN1c2ccccc2N(C)C23N(C)c4ccccc4N(C)C12N(C)c1ccccc1N3C (stereo unspecified)
3. COC(=O)C1=C(C[S+]([O-])c2ccccc2[N+](=O)[O-])ON(C)C1c1ccccc1 (stereo unspecified)
4. c1ccc2c(c1)N=c1cc3c(cc1N2)=NC12CCCCC1CC1=C(CCCC1)N32 (stereo unspecified)
5. N=C(N)NCC1CCCCCCN1 (stereo unspecified)
6. COC(=O)/C(C#N)=C1\CCC(OC)N1C (stereo unspecified)

Found:
["> 100 µM (inactive)", "> 100 µM (inactive)", "35.2 µM (inactive)", "2.03 µM (inactive)", "> 100 µM (inactive)", "> 100 µM (inactive)"]
